- System: Haemophilus influenzae
- Test method notes: Activity in vivo: survival of intraperitoneally infected mice
- Experimental parameters: sc, 96 h; mice infected i.p. with Haemophilus influenzae; s.c. twice, 1 h and 3 h after infection; survival on 4th day; read-out: CD50 (dosage at which 50% of the animals survive)
Structures can show the parent of a compound that is named as a salt.
Attribute measured: ED50

Q: Given the compound CO/N=C(\C(=O)N[C@@H]1C(=O)N2C(C(=O)O)=C(CSc3nc(=O)c(O)nn3C)CS[C@H]12)c1c[se]c(N)n1 [Product C, disodium salt] , what is its reported ED50?
Ans: < 0.05 mg/kg

Q: Given the compound CO/N=C(\C(=O)N[C@@H]1C(=O)N2C(C(=O)[O-])=C(CSc3nnnn3C)CS[C@H]12)c1c[se]c(N)n1.[Na+] , what is its reported ED50?
Ans: 1.5 mg/kg

Q: Given the compound CO/N=C(\C(=O)N[C@@H]1C(=O)N2C(C(=O)O)=C(CSc3nnc(C)s3)CS[C@H]12)c1c[se]c(N)n1 [Product B, sodium salt] , what is its reported ED50?
Ans: 0.27 mg/kg

Q: Given the compound CO/N=C(\C(=O)N[C@@H]1C(=O)N2C(C(=O)[O-])=C(CSc3n[nH]c(=O)c(=O)n3C)CS[C@H]12)c1c[se]c(N)n1.[Na+] , what is its reported ED50?
Ans: 0.25 mg/kg

Q: Given the compound CO/N=C(\C(=O)N[C@@H]1C(=O)N2C(C(=O)O)=C(C)CS[C@H]12)c1c[se]c(N)n1 [Product F, sodium salt] , what is its reported ED50?
Ans: 4 mg/kg

Q: Given the compound CO/N=C(\C(=O)N[C@@H]1C(=O)N2C(C(=O)O)=C(CSc3nc(=O)c(O)nn3C)C[S+]([O-])[C@H]12)c1c[se]c(N)n1 (stereo partly drawn) [Product E, disodium salt] , what is its reported ED50?
Ans: 1.8 mg/kg

====

- Tested on: Enterobacter aerogenes
- Test method notes: Activity in vitro: minimum inhibitory concentration
- Type: cell-based
- Experimental parameters: Klebsiella aerogenes, Enterobacter aerogenes strain 1
Where a name gives a salt, the structure may show the parent alone.
Record form. Attribute: MIC. Fill in for each entry.
Note: unit µg/mL is implicit; provide only the numeric part.

Q: Given the compound CC(C)(O/N=C(\C(=O)N[C@@H]1C(=O)N2C(C(=O)[O-])=C(C[n+]3ccccc3)CS[C@H]12)c1c[se]c(N)n1)C(=O)O [Product K] , what is its reported MIC?
Ans: 0.4

Q: Given the compound CO/N=C(\C(=O)N[C@@H]1C(=O)N2C(C(=O)O)=C(CSc3nc(=O)c(O)nn3C)C[S+]([O-])[C@H]12)c1c[se]c(N)n1 (stereo partly drawn) [Product E, disodium salt] , what is its reported MIC?
Ans: 0.1

Q: Given the compound CC1=C(C(=O)[O-])N2C(=O)[C@@H](NC(=O)/C(=N\O)c3c[se]c(N)n3)[C@H]2SC1.[Na+] [Product M] , what is its reported MIC?
Ans: 0.4

Q: Given the compound CO/N=C(\C(=O)N[C@@H]1C(=O)N2C(C(=O)[O-])=C(CSc3n[nH]c(=O)c(=O)n3C)CS[C@H]12)c1c[se]c(N)n1.[Na+] [Product G] , what is its reported MIC?
Ans: 0.1

Q: Given the compound CO/N=C(\C(=O)N[C@@H]1C(=O)N2C(C(=O)O)=C(CSc3nnc(C)s3)CS[C@H]12)c1c[se]c(N)n1 [Product B, sodium salt] , what is its reported MIC?
Ans: 0.1

Q: Given the compound CC(=O)OCC1=C(C(=O)O)N2C(=O)[C@@H](NC(=O)/C(=N\OC(C)(C)C(=O)O)c3c[se]c(N)n3)[C@H]2SC1 [Product I, disodium salt] , what is its reported MIC?
Ans: 0.4
